Tested on: HeLa
ASSAY METHOD TEXT: Cytotoxicity against human HeLa cells after 72 hrs
Assay type: functional, cell-based
MEASURED PROPERTY: IC50 (µM)
Write it as a number; the unit µM goes unstated.

Illustrative cases are given below, each with its answer.
1. CCCC#Cc1cn([C@@H]2O[C@H](CO)[C@@H](O)[C@H](O)[C@H]2O)c(=O)nc1N: 191
2. CCCc1cc2cn([C@@H]3O[C@H](CO)[C@@H](O)[C@H](O)[C@H]3O)c(=O)nc2o1: 125
3. CC(C)(C)c1ccc(C#Cc2cn([C@@H]3O[C@H](CO)[C@@H](O)[C@H](O)[C@H]3O)c(=O)nc2O)cc1: 37

Query :: Looking for the measured IC50 of CC(=O)OC[C@H]1O[C@@H](n2cc(C#Cc3cccc[n+]3C)c(=O)[nH]c2=O)[C@H](OC(C)=O)[C@@H](OC(C)=O)[C@@H]1OC(C)=O , can you help?
Result :: 232

Query :: Looking for the measured IC50 of C#Cc1cn([C@@H]2O[C@H](CO)[C@@H](O)[C@H](O)[C@H]2O)c(=O)[nH]c1=O , can you help?
Result :: 231

Query :: Looking for the measured IC50 of O=c1[nH]c(=O)n([C@@H]2O[C@H](CO)[C@@H](O)[C@H](O)[C@H]2O)cc1C#Cc1ccccn1 , can you help?
Result :: 66

Query :: Looking for the measured IC50 of CC(=O)OC[C@H]1O[C@@H](n2cc(C#Cc3ccccn3)c(=O)[nH]c2=O)[C@H](OC(C)=O)[C@@H](OC(C)=O)[C@@H]1OC(C)=O , can you help?
Result :: 90

Query :: Looking for the measured IC50 of CCCCCc1ccc(C#Cc2cn([C@@H]3O[C@H](CO)[C@@H](O)[C@H](O)[C@H]3O)c(=O)nc2O)cc1 , can you help?
Result :: 31

Query :: Looking for the measured IC50 of CCCCCc1ccc(C#Cc2cn([C@@H]3O[C@H](CO)[C@@H](O)[C@H](O)[C@H]3O)c(=O)nc2N)cc1 , can you help?
Result :: 43

Query :: Looking for the measured IC50 of CCCC#Cc1cn([C@@H]2O[C@H](CO)[C@@H](O)[C@H](O)[C@H]2O)c(=O)[nH]c1=O , can you help?
Result :: 95

Query :: Looking for the measured IC50 of Nc1nc(=O)n([C@@H]2O[C@H](CO)[C@@H](O)[C@H](O)[C@H]2O)cc1C#Cc1ccccc1 , can you help?
Result :: 201

* * *

Tested on: Human alphaherpesvirus 1
ASSAY METHOD TEXT: Antiviral activity against kinase-deficient acyclovir-resistant HSV-1 KOS by cell based assay
Format: functional, organism-based
Calls of active or inactive are those of the source. The rule behind the calls is not given here.
MEASURED PROPERTY: Activity

Illustrative cases are given below, each with its answer.
1) C[n+]1ccccc1C#Cc1cn([C@@H]2O[C@H](CO)[C@@H](O)[C@H](O)[C@H]2O)c(=O)[nH]c1=O: inactive
2) O=c1[nH]c(=O)n([C@@H]2O[C@H](CO)[C@@H](O)[C@H](O)[C@H]2O)cc1C#Cc1ccccn1: inactive
3) O=c1nc(O)c(C#Cc2ccccc2)cn1[C@@H]1O[C@H](CO)[C@@H](O)[C@H](O)[C@H]1O: inactive
4) C[n+]1cccc(C#Cc2cn([C@@H]3O[C@H](CO)[C@@H](O)[C@H](O)[C@H]3O)c(=O)[nH]c2=O)c1: inactive
5) O=c1[nH]c(=O)n([C@@H]2O[C@H](CO)[C@@H](O)[C@H](O)[C@H]2O)cc1C#Cc1cccnc1: inactive

Query :: Looking for the measured Activity of CCCc1cc2cn([C@@H]3O[C@H](CO)[C@@H](O)[C@H](O)[C@H]3O)c(=O)nc2o1 , can you help?
Result :: inactive

Query :: Looking for the measured Activity of CCCCCc1cc2cn([C@@H]3O[C@H](CO)[C@@H](O)[C@H](O)[C@H]3O)c(=O)nc2o1 , can you help?
Result :: inactive

* * *

System: Human respirovirus 3
ASSAY METHOD TEXT: Antiviral activity against Parainfluenza-3 virus by cell based assay
Format: functional, organism-based
Calls of active or inactive are those of the source. No cut-off for these calls is given here.
MEASURED PROPERTY: Activity

Illustrative cases are given below, each with its answer.
1) O=c1nc(O)c(C#Cc2ccccc2)cn1[C@@H]1O[C@H](CO)[C@@H](O)[C@H](O)[C@H]1O: inactive
2) O=c1[nH]c(=O)n([C@@H]2O[C@H](CO)[C@@H](O)[C@H](O)[C@H]2O)cc1C#Cc1cccnc1: inactive
3) CCCCCc1cc2cn([C@@H]3O[C@H](CO)[C@@H](O)[C@H](O)[C@H]3O)c(=O)nc2o1: inactive
4) C[n+]1ccccc1C#Cc1cn([C@@H]2O[C@H](CO)[C@@H](O)[C@H](O)[C@H]2O)c(=O)[nH]c1=O: inactive
5) CCCc1cc2cn([C@@H]3O[C@H](CO)[C@@H](O)[C@H](O)[C@H]3O)c(=O)nc2o1: inactive

Query :: Query for Human respirovirus 3: what Activity does the record show for O=c1[nH]c(=O)n([C@@H]2O[C@H](CO)[C@@H](O)[C@H](O)[C@H]2O)cc1C#Cc1ccccn1 ?
Result :: inactive

Query :: Query for Human respirovirus 3: what Activity does the record show for C[n+]1cccc(C#Cc2cn([C@@H]3O[C@H](CO)[C@@H](O)[C@H](O)[C@H]3O)c(=O)[nH]c2=O)c1 ?
Result :: inactive

* * *

System: Human alphaherpesvirus 2
ASSAY METHOD TEXT: Antiviral activity against HSV-2 Lyons by cell based assay
Type: functional, organism-based
Activity calls are given as the source filed them. The calls are words filed in the database; no cut-off is given here.
MEASURED PROPERTY: Activity

1. CCCc1cc2cn([C@@H]3O[C@H](CO)[C@@H](O)[C@H](O)[C@H]3O)c(=O)nc2o1: inactive
2. C[n+]1cccc(C#Cc2cn([C@@H]3O[C@H](CO)[C@@H](O)[C@H](O)[C@H]3O)c(=O)[nH]c2=O)c1: inactive
3. C[n+]1ccccc1C#Cc1cn([C@@H]2O[C@H](CO)[C@@H](O)[C@H](O)[C@H]2O)c(=O)[nH]c1=O: inactive

* * *

# reported log10 IC50; entries follow
System: L1210
ASSAY METHOD TEXT: Cytotoxicity against mouse L1210 cells after 48 hrs
Format: functional, cell-based
ASSAY SETUP: L1210, 48 h
Log scale reminder: IC50 in µM, then log10 taken.

Illustrative cases are given below, each with its answer.
1) C[n+]1ccccc1C#Cc1cn([C@@H]2O[C@H](CO)[C@@H](O)[C@H](O)[C@H]2O)c(=O)[nH]c1=O: 2.18
2) O=c1[nH]c(=O)n([C@@H]2O[C@H](CO)[C@@H](O)[C@H](O)[C@H]2O)cc1CCc1ccccc1: 2.48
3) CCCc1cc2cn([C@@H]3O[C@H](CO)[C@@H](O)[C@H](O)[C@H]3O)c(=O)nc2o1: 2.12
4) CCCCCC#Cc1cn([C@@H]2O[C@H](CO)[C@@H](O)[C@H](O)[C@H]2O)c(=O)[nH]c1=O: 1.34
5) C#Cc1cn([C@@H]2O[C@H](CO)[C@@H](O)[C@H](O)[C@H]2O)c(=O)[nH]c1=O: 2.15

Query :: Looking for the measured log10 IC50 of CCCC#Cc1cn([C@@H]2O[C@H](CO)[C@@H](O)[C@H](O)[C@H]2O)c(=O)[nH]c1=O , can you help?
Result :: 2.06

Query :: Looking for the measured log10 IC50 of CC(=O)OC[C@H]1O[C@@H](n2cc(C#Cc3ccccn3)c(=O)[nH]c2=O)[C@H](OC(C)=O)[C@@H](OC(C)=O)[C@@H]1OC(C)=O , can you help?
Result :: 2.06

* * *

# reported pIC50; entries follow
Tested on: L1210
ASSAY METHOD TEXT: Cytotoxicity against mouse L1210 cells after 48 hrs
Type: functional, cell-based
ASSAY SETUP: L1210, 48 h
// returns pIC50 (minus log10 of molar concentration), number only

1. CCCCCc1ccc(C#Cc2cn([C@@H]3O[C@H](CO)[C@@H](O)[C@H](O)[C@H]3O)c(=O)nc2O)cc1: 4.15

Query :: Looking for the measured pIC50 of CC(C)(C)c1ccc(C#Cc2cn([C@@H]3O[C@H](CO)[C@@H](O)[C@H](O)[C@H]3O)c(=O)nc2O)cc1 , can you help?
Result :: 3.73

Query :: Looking for the measured pIC50 of O=c1nc(O)c(C#Cc2ccccc2)cn1[C@@H]1O[C@H](CO)[C@@H](O)[C@H](O)[C@H]1O , can you help?
Result :: 5.21

Query :: Looking for the measured pIC50 of O=c1[nH]c(=O)n([C@@H]2O[C@H](CO)[C@@H](O)[C@H](O)[C@H]2O)cc1C#Cc1ccccn1 , can you help?
Result :: 4.15

Query :: Looking for the measured pIC50 of CCCCCc1ccc(C#Cc2cn([C@@H]3O[C@H](CO)[C@@H](O)[C@H](O)[C@H]3O)c(=O)nc2N)cc1 , can you help?
Result :: 3.88

Query :: Looking for the measured pIC50 of CC(=O)OC[C@H]1O[C@@H](n2cc(C#Cc3cccc[n+]3C)c(=O)[nH]c2=O)[C@H](OC(C)=O)[C@@H](OC(C)=O)[C@@H]1OC(C)=O , can you help?
Result :: 3.69
